# test.system: T1, S. aureus gamma-hemolysin component C (HlgC) (Staphylococcus aureus, UniProt Q07227 30-315)
# T1 sequence: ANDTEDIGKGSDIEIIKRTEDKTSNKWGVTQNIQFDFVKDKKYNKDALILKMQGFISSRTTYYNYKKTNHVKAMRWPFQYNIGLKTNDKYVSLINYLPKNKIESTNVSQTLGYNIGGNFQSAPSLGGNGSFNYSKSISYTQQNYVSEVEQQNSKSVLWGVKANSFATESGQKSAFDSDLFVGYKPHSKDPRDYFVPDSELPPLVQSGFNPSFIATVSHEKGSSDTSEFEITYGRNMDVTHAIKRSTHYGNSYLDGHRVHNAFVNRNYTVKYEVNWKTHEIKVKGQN
# test: BLI, biotinylated VHH on streptavidin sensor, HlgC in solution
measurement.name: pKd
# log scale: pKd equals minus log10 of the concentration in mol/L

Query string: Look up pKd: Bm32A03 (VHH) VHH: QVQLVESGGALVQTGGSLRLSCVTSGSISSIYAMPWFRQAPGKEREFVAAISWHTNLAYYADSVKGRFTISKDNAKNTVYLQMDSLKPEDTATYYCNVPSKEEYDRTSYYPTGGSWGQGTQVTVSS
Result string: 10.60

Query string: Please do the same for Bm32D01 (VHH) VHH: QVQLVESGGGLVQTGGSLRLSCATSGRISSIYAMPWFRQAPGKEREFVAAISWHTDLTYYADSVKDRFTISKDNAKATVYLQMNNLQPEDTAVYYCNVPSKEQYDRTSYYPTGGSWGQGTQVTVSS as well.
Result string: 10.52

Query string: Please do the same for Bm32B07 (VHH) VHH: QVQLVESGGGLVQTGGSLRLSCATSGRISSIYAMPWFRQAPGKEREFVAAISWHTDLAYYADSVKGRFTISKDNAKNTVYLQMNSLKPEDTAVYYCNIPSKEEYDRNYYYPTGGSWGQGTQVTVSS as well.
Result string: 10.35
